System: multiple myeloma cells (MM.1R)
Assay: In vitro cytotoxicity, CellTiter-Glo 96 h, MM.1R
Settings: read-out: Cytotoxic potency (IC50 class), MM.1R
quantity: IC50

{"compound": "CC[C@@]1(O)C(=O)OCc2c1cc1n(c2=O)Cc2c-1nc1cc3c(cc1c2C1CCCC1)OCO3 [Compound 6i]", "IC50": "1 to 10 nM"}

Query string: Supply recorded IC50 for CC[C@@]1(O)C(=O)OCc2c1cc1n(c2=O)Cc2c-1nc1cc3c(cc1c2CN(CCN)CCO)OCO3 [Compound 5q] here.
Result string: 10 to 100 nM

Query string: Supply recorded IC50 for CC[C@@]1(O)C(=O)OCc2c1cc1n(c2=O)Cc2c-1nc1cc3c(cc1c2CNC(=O)CO)OCO3 [Compound 4a] here.
Result string: 1 to 10 nM

Query string: Supply recorded IC50 for CC[C@@]1(O)C(=O)OCc2c1cc1n(c2=O)Cc2c-1nc1cc3c(cc1c2CNCCNC(C)C)OCO3 [Compound 5m] here.
Result string: 10 to 100 nM
